Target: ABCG2 (Homo sapiens, UniProt Q9UNQ0)
Construct: ABCG2 in insect cell membrane vesicles (total membranes)
Sequence (Q9UNQ0 1-655): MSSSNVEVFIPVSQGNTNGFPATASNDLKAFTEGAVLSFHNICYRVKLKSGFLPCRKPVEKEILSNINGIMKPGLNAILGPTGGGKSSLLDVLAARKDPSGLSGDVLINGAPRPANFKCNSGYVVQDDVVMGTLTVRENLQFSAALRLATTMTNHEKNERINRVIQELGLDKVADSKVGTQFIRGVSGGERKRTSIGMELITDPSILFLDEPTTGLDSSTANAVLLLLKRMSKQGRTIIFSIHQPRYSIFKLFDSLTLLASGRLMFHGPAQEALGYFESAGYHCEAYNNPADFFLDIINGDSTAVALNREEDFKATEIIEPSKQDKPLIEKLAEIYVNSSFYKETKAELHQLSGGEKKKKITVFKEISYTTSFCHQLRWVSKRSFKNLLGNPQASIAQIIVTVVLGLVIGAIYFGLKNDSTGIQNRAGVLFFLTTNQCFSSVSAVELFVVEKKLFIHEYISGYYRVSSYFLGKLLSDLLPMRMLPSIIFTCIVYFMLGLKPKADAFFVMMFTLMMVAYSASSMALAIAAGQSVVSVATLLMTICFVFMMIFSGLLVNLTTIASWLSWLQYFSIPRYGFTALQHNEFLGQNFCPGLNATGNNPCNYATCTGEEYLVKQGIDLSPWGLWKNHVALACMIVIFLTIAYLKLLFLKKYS
Assay: biochemical
measurement_label: EC50 (nM)
Please respond with the number in nM and leave the unit unwritten.

QUERY: Check the records and state EC50 for Cc1cc(O)c(-c2ccc([C@@H](C)CN(C)C)cc2)c2c1[nH]c(=O)c1sccc12 [OTS964]
RESULT: 140
